The measured values listed here are drawn from paper PMC2673439.

Biological target: T1, tvMyb1(35-141) (Trichomonas vaginalis, UniProt Q58HP2 35-141)
T1 sequence: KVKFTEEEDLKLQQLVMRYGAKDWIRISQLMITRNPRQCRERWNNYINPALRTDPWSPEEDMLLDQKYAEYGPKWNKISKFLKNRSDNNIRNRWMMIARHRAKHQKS
Assay: SPR
pKd: −log10 of the molar value.
Metric name: pKd

| Binder | Observed value |
| --- | --- |
| MRE-1/MRE-2r 16-bp duplex, 5'-biotin (dsDNA) DNA 1: AAGATAACGATATTTA DNA 2: TAAATATCGTTATCTT | 8.91 |
